- Test system: S30 extracts from S. pneumoniae 1707/4
- assay procedure: Gram-positive in vitro coupled transcription/translation (T/T) assay, S. pneumoniae S30 extract
- Type: biochemical
- condition: template pT7-FF; value in square brackets
I'd be grateful if you could share measured log10 of IC50 for these entries.
Hi team, quick reminder: these entries are log10 of IC50 (µg/mL).

So, CC[C@H]1OC(=O)[C@H](C)[C@@H](O[C@H]2C[C@@](C)(OC)[C@@H](O)[C@H](C)O2)[C@H](C)[C@@H](O[C@@H]2O[C@H](C)C[C@H](N(C)C)[C@H]2O)[C@](C)(O)C[C@@H](C)C(=O)[C@H](C)[C@@H](O)[C@]1(C)O ? Its log10 of IC50 was -1.40

get_value(item= O=C(N[C@H](CO)[C@H](O)c1ccc([N+](=O)[O-])cc1)C(Cl)Cl , readout=log10 of IC50) returns 0.58

Lab note: measured log10 of IC50 of CC(=O)NC[C@H]1CN(c2ccc(N3CCOCC3)c(F)c2)C(=O)O1 was 0.23

Reported log10 of IC50 for CN(C)[C@@H]1C(=O)C(C(N)=O)=C(O)[C@@]2(O)C(=O)C3=C(O)c4c(O)cccc4[C@@](C)(O)[C@H]3C[C@@H]12 was -0.70

The recorded log10 of IC50 for entry [H]/N=C(/N)N[C@H]1[C@H](O)[C@@H](O)[C@H](O[C@@H]2O[C@@H](C)[C@](O)(C=O)[C@H]2O[C@@H]2O[C@@H](CO)[C@H](O)[C@@H](O)[C@@H]2NC)[C@@H](N/C(N)=N\[H])[C@@H]1O equals -1.70

###

- System: S30 extracts from S. aureus 133
- assay procedure: Gram-positive in vitro coupled transcription/translation (T/T) assay, S. aureus S30 extract
- Assay type: biochemical
- condition: template pT7-FF with T7 RNA polymerase; read-out: IC50
Would you kindly list IC50 for each of these compounds?
Field: numeric (nM). Do not append units.

The reported IC50 of the compound CN(C)[C@@H]1C(=O)C(C(N)=O)=C(O)[C@@]2(O)C(=O)C3=C(O)c4c(O)cccc4[C@@](C)(O)[C@H]3C[C@@H]12 [Tetracyclin] was 600

Just so you know, measured IC50 for O=C(N[C@H](CO)[C@H](O)c1ccc([N+](=O)[O-])cc1)C(Cl)Cl [Chloramphenicol] came out at 7400

In plain terms, [H]/N=C(/N)N[C@H]1[C@H](O)[C@@H](O)[C@H](O[C@@H]2O[C@@H](C)[C@](O)(C=O)[C@H]2O[C@@H]2O[C@@H](CO)[C@H](O)[C@@H](O)[C@@H]2NC)[C@@H](N/C(N)=N\[H])[C@@H]1O [Streptomycin] has a documented IC50 of 20
